- Test system: Nucleic Acid
- test.description: Inhibition of bleomycin-induced DNA damage assessed as absorbance at 532 nm after 1 hr at 37 degC
- Format: nucleic-acid assay
Hi there, I'd appreciate the recorded deltaA for every entry that follows.
Answers are plain numbers.

- molecule: "O=c1c2c(-c3ccc(Cl)cc3)c3c(nc2nc2[nH]nc([C@H](O)[C@@H](O)[C@@H](O)[C@H](O)CO)n12)/C(=C/c1ccc(Cl)cc1)CCC3"
  deltaA: 0.029
- molecule: "O=C1O[C@H]([C@@H](O)CO)C(O)=C1O [ASCORBIC ACID]"
  deltaA: 0.026
- molecule: "O=c1c2c(-c3ccc(Cl)cc3)c3c(nc2nc2[nH]nc([C@H](O)[C@H](O)[C@H](O)[C@H](O)CO)n12)/C(=C/c1ccc(Cl)cc1)CCC3"
  deltaA: 0.026
- molecule: "O=c1c2c(-c3ccc(Cl)cc3)c3c(nc2nc2[nH]nc([C@H](O)[C@H](O)[C@H](O)CO)n12)/C(=C/c1ccc(Cl)cc1)CCC3"
  deltaA: 0.045

Kindly consider the entry below.
Give its deltaA value. Item: O=c1c2c(-c3ccc(Cl)cc3)c3c(nc2nc2[nH]nc([C@@H](O)[C@H](O)[C@H](O)CO)n12)/C(=C/c1ccc(Cl)cc1)CCC3 0.05

----------
- Test system: Rattus norvegicus
- test.description: Antiinflammatory activity in Sprague-Dawley rat assessed as inhibition of carrageenan-induced paw edema after 4 hrs
- Type: functional
measured.endpoint: inhibition (INH) (%)
Answers are plain numbers, in %.

Known results for compounds:
- smiles.text: "NNc1nc2nc3c(c(-c4ccc(Cl)cc4)c2c(=O)[nH]1)CCC/C3=C\\c1ccc(Cl)cc1"
  measured.endpoint: "inhibition (INH)"
  units.label: "%"
  obs.value: 35.19
- smiles.text: "CC(=O)OC[C@@H](OC(C)=O)[C@@H](OC(C)=O)[C@@H](OC(C)=O)[C@@H](OC(C)=O)c1n[nH]c2nc3nc4c(c(-c5ccc(Cl)cc5)c3c(=O)n12)CCC/C4=C\\c1ccc(Cl)cc1"
  measured.endpoint: "inhibition (INH)"
  units.label: "%"
  obs.value: 19.57
- smiles.text: "CC(=O)OC[C@@H](OC(C)=O)[C@H](OC(C)=O)[C@H](OC(C)=O)[C@@H](OC(C)=O)c1n[nH]c2nc3nc4c(c(-c5ccc(Cl)cc5)c3c(=O)n12)CCC/C4=C\\c1ccc(Cl)cc1"
  measured.endpoint: "inhibition (INH)"
  units.label: "%"
  obs.value: 17.19

Give its inhibition (INH) value. Item: O=c1[nH]c(=S)[nH]c2nc3c(c(-c4ccccc4)c12)CCC/C3=C\c1ccccc1 25

----------
- System: Staphylococcus aureus
- test.description: Antibacterial activity against Staphylococcus aureus ATCC 25923 at 100 ug/disk after 24 to 48 hrs by agar disk diffusion method
- Format: functional
- measurement.context: read-out: DIZ
Hi there, I'd appreciate the recorded zone of inhibition at 100 µg/disc for every entry that follows.
Give bare numbers, in mm.

Known results for molecules:
- smiles.text: "CC(=O)OC[C@@H](OC(C)=O)[C@@H](OC(C)=O)[C@@H](/C=N/Nc1nc2nc3c(c(-c4ccc(Cl)cc4)c2c(=O)n1OC(C)=O)CCC/C3=C\\c1ccc(Cl)cc1)OC(C)=O"
  zone of inhibition at 100 µg/disc (mm): 13
- smiles.text: "CC(=O)OC[C@@H](OC(C)=O)[C@@H](OC(C)=O)[C@@H](OC(C)=O)[C@@H](OC(C)=O)c1n[nH]c2nc3nc4c(c(-c5ccc(Cl)cc5)c3c(=O)n12)CCC/C4=C\\c1ccc(Cl)cc1"
  zone of inhibition at 100 µg/disc (mm): 13
- smiles.text: "O=c1c2c(-c3ccc(Cl)cc3)c3c(nc2nc2[nH]nc([C@H](O)[C@@H](O)[C@@H](O)[C@H](O)CO)n12)/C(=C/c1ccc(Cl)cc1)CCC3"
  zone of inhibition at 100 µg/disc (mm): 20

Give zone of inhibition at 100 µg/disc for each listed item.
1. CC(=O)OC[C@@H](OC(C)=O)[C@@H](OC(C)=O)[C@H](/C=N/Nc1nc2nc3c(c(-c4ccc(Cl)cc4)c2c(=O)n1OC(C)=O)CCC/C3=C\c1ccc(Cl)cc1)OC(C)=O
2. CC(=O)OC[C@@H](OC(C)=O)[C@H](OC(C)=O)[C@H](OC(C)=O)[C@@H](OC(C)=O)c1n[nH]c2nc3nc4c(c(-c5ccc(Cl)cc5)c3c(=O)n12)CCC/C4=C\c1ccc(Cl)cc1
3. O=c1c2c(-c3ccc(Cl)cc3)c3c(nc2nc2[nH]nc([C@H](O)[C@H](O)[C@H](O)CO)n12)/C(=C/c1ccc(Cl)cc1)CCC3
4. O=c1c2c(-c3ccc(Cl)cc3)c3c(nc2nc2[nH]nc([C@@H](O)[C@H](O)[C@H](O)CO)n12)/C(=C/c1ccc(Cl)cc1)CCC3
5. NNc1nc2nc3c(c(-c4ccc(Cl)cc4)c2c(=O)[nH]1)CCC/C3=C\c1ccc(Cl)cc1
6. O=c1[nH]c(=S)[nH]c2nc3c(c(-c4ccccc4)c12)CCC/C3=C\c1ccccc1
7. O=c1c2c(-c3ccc(Cl)cc3)c3c(nc2nc2[nH]nc([C@H](O)[C@H](O)[C@H](O)[C@H](O)CO)n12)/C(=C/c1ccc(Cl)cc1)CCC3

11
10
22
20
18
14
19

Form entry - test system: Staphylococcus aureus; read-out: zone of inhibition at 100 µg/disc; molecule: O=C(O)c1cn(C2CC2)c2cc(N3CCNCC3)c(F)cc2c1=O 24

----------
Hi there, I'd appreciate the recorded inhibition (INH) for every entry that follows.
- Tested on: Rattus norvegicus
- test.description: Antiinflammatory activity in Sprague-Dawley rat assessed as inhibition of carrageenan-induced paw edema after 3 hrs
- Type: functional
Numbers only, in %.

- smiles.text: "NNc1nc2nc3c(c(-c4ccc(Cl)cc4)c2c(=O)[nH]1)CCC/C3=C\\c1ccc(Cl)cc1"
  units.label: "%"
  obs.value: 37.68

Give inhibition (INH) for each listed item.
1. O=c1c2c(-c3ccc(Cl)cc3)c3c(nc2nc2[nH]nc([C@@H](O)[C@H](O)[C@H](O)CO)n12)/C(=C/c1ccc(Cl)cc1)CCC3
2. CC(=O)OC[C@@H](OC(C)=O)[C@@H](OC(C)=O)[C@@H](OC(C)=O)[C@@H](OC(C)=O)c1n[nH]c2nc3nc4c(c(-c5ccc(Cl)cc5)c3c(=O)n12)CCC/C4=C\c1ccc(Cl)cc1

[45.31, 13.28]

Give inhibition (INH) for each listed item.
1. CC(=O)OC[C@@H](OC(C)=O)[C@@H](OC(C)=O)[C@@H](/C=N/Nc1nc2nc3c(c(-c4ccc(Cl)cc4)c2c(=O)n1OC(C)=O)CCC/C3=C\c1ccc(Cl)cc1)OC(C)=O
2. O=c1c2c(-c3ccc(Cl)cc3)c3c(nc2nc2[nH]nc([C@H](O)[C@@H](O)[C@@H](O)[C@H](O)CO)n12)/C(=C/c1ccc(Cl)cc1)CCC3
3. O=c1c2c(-c3ccc(Cl)cc3)c3c(nc2nc2[nH]nc([C@H](O)[C@H](O)[C@H](O)[C@H](O)CO)n12)/C(=C/c1ccc(Cl)cc1)CCC3

28.98
49.27
42.03

----------
- Test system: Rattus norvegicus
- test.description: Antiinflammatory activity in Sprague-Dawley rat assessed as inhibition of carrageenan-induced paw edema after 4 hrs
- Type: functional
measured.endpoint: inhibition (INH) (%)
Numbers only, in %.

- smiles.text: "CC(=O)OC[C@@H](OC(C)=O)[C@@H](OC(C)=O)[C@@H](/C=N/Nc1nc2nc3c(c(-c4ccc(Cl)cc4)c2c(=O)n1OC(C)=O)CCC/C3=C\\c1ccc(Cl)cc1)OC(C)=O"
  target.under.test: "Rattus norvegicus"
  obs.value: 22.22
- smiles.text: "O=c1c2c(-c3ccc(Cl)cc3)c3c(nc2nc2[nH]nc([C@@H](O)[C@H](O)[C@H](O)CO)n12)/C(=C/c1ccc(Cl)cc1)CCC3"
  target.under.test: "Rattus norvegicus"
  obs.value: 46.67
- smiles.text: "O=c1c2c(-c3ccc(Cl)cc3)c3c(nc2nc2[nH]nc([C@H](O)[C@H](O)[C@H](O)CO)n12)/C(=C/c1ccc(Cl)cc1)CCC3"
  target.under.test: "Rattus norvegicus"
  obs.value: 39.81
- smiles.text: "O=c1c2c(-c3ccc(Cl)cc3)c3c(nc2nc2[nH]nc([C@H](O)[C@H](O)[C@H](O)[C@H](O)CO)n12)/C(=C/c1ccc(Cl)cc1)CCC3"
  target.under.test: "Rattus norvegicus"
  obs.value: 40.62
- smiles.text: "CC(=O)OC[C@@H](OC(C)=O)[C@@H](OC(C)=O)[C@H](/C=N/Nc1nc2nc3c(c(-c4ccc(Cl)cc4)c2c(=O)n1OC(C)=O)CCC/C3=C\\c1ccc(Cl)cc1)OC(C)=O"
  target.under.test: "Rattus norvegicus"
  obs.value: 26.56

Give its inhibition (INH) value. Item: O=c1c2c(-c3ccc(Cl)cc3)c3c(nc2nc2[nH]nc([C@H](O)[C@@H](O)[C@@H](O)[C@H](O)CO)n12)/C(=C/c1ccc(Cl)cc1)CCC3 50
